Here, each record is paired with measured pIC50 data.
TARGET OR TEST SYSTEM: human LSD1(171-852) (Homo sapiens, UniProt O60341)
Construct: to give hLSD1(171-852) purified product; made in house; host or cells: Escherichia coli C43(DE3) pLysS
ASSAY PROCEDURE: Measurement of LSD1 inhibitory activity (time-resolved fluorescence, biotin-histone H3 mono methylated K4 peptide)
Type: biochemical
CONDITIONS: read-out: LSD1 IC50 value
pIC50: −log10 of the molar value. Structures can show the parent of a compound that is named as a salt.
OBSERVABLE: pIC50

| MOLECULE | TEST VALUE |
| --- | --- |
| O=C1c2ccccc2CN1c1ccc([C@@H]2C[C@H]2NCC2CC2)cc1 (relative stereo) [Example 144, hydrochloride] | 6.70 |
| O=C(Nc1ccc([C@@H]2C[C@H]2NCc2cscn2)cc1)c1cccc(C(F)(F)F)c1 (relative stereo) [Example 72, dihydrochloride] | > 7.00 |
| O=C(Nc1ccc([C@@H]2C[C@H]2NCC2CC2)cc1)c1ccc2cc[nH]c2c1 (relative stereo) | > 7.00 |
| CN(C)c1ccc(C(=O)Nc2ccc([C@@H]3C[C@H]3NCC3CC3)cc2)cc1 (relative stereo) | > 7.00 |
| CCCCCCCCN[C@@H]1C[C@H]1c1ccc(NC(=O)c2ccccc2)cc1 (relative stereo) | 6.70 |
| O=C(Nc1ccc([C@@H]2C[C@H]2NCc2ccccc2)cc1)c1ccccc1 (relative stereo) | > 7.00 |
| O=C(Nc1ccc([C@@H]2C[C@H]2NCc2c[nH]cn2)cc1)c1ccc(-c2ccccc2)cc1 (relative stereo) [Example 66, dihydrochloride] | > 7.00 |
| COc1ccc(CN[C@@H]2C[C@H]2c2ccc(NC(=O)c3ccc(-c4ccccc4)cc3)cc2)cn1 (relative stereo) | > 7.00 |
| O=C(Nc1ccc([C@@H]2C[C@H]2NC2c3ccccc3-c3ccccc32)cc1)c1ccccc1 (relative stereo) | > 7.00 |
